test system: MS2 coat protein; assay: apparent KD of MS2 coat protein; designed switch direction (-1 OFF switch, 1 ON switch): -1; higher = weaker reporter binding; conditions: Eterna round: R95; input ligand: microRNA oligo, concentration not stated
Measured apparent KD of MS2 coat protein values are reported for all entries that follow.
Numeric only. Scale: nM

Some entries whose results are on file:
{"Biosequence": "CCGAAUAUGUAGGAUAUCGUAUCGGAAACGAUACGAGAAGGGCAAACAUGAGGAUCACCCAUGUUCCUUAACGG [Fiskers Ex 6 - 13] (puzzle: Exclusion 6)", "Unit string": "nM", "apparent KD of MS2 coat protein": 15.1}
{"Biosequence": "GUGUAGGGAGGAUAUACAUGAGGAUCACCCAUGUGAAUAAGAUAGAAUAAGAUAAAGUGUAGAAGGUCUAGUGU [Excluse me!!! 12 - Jieux - Exclusion 3] (puzzle: Exclusion 3)", "Unit string": "nM", "apparent KD of MS2 coat protein": 52.7}
{"Biosequence": "GCAGGCGUCUAGGCUCGUCUUAUUUUGAGAAGAUUGAUAACAUGAGGAUCACCCAUGUUUGUGGGAGAGUUGGAGUG [JR_SV3TOV2_Sub014] (puzzle: Sensor v3, turn-off variant 2)", "Unit string": "nM", "apparent KD of MS2 coat protein": 258}
{"Biosequence": "GGUUGGCGAGGAUAUACAUGAGGAUCACCCAUGUGAGAAUUAAAAGUGAGGAAGAAAAGUAGAAGGCGCUGACG [Mat - Exclusion 3 - Mod of Salish D4] (puzzle: Exclusion 3)", "Unit string": "nM", "apparent KD of MS2 coat protein": 36.1}

In the following, a different sequence is considered.
Q: Entry GUGCGGUGAGGAUAUACGUAGGUACAGAUCUGUGUGUUCCUACAUGAGGAUCACCCAUGUAGAAGGCAUGGCAC [LRO-Excl2-12] (puzzle: Exclusion 2) needs its apparent KD of MS2 coat protein filled in; supply it.
A: 38.4
